TEST SYSTEM: human ether-à-go-go-related gene (hERG) potassium channel (human);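 note: peak tail current of the secondary pulse compared with the same well before compound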
ASSAY: primary screen, population patch clamp on CHO cells stably expressing hERG; higher = less effect of the substance
About 14,000 (4.5%) of roughly 310,000 compounds showed an effect of 50% or more. The effect is printed as a negative number. This excerpt belongs to a sample that is enriched for strong results.
MEASURED PROPERTY: hERG current change (%, negative = inhibition) at 10uM

MOLECULE: CCOC(=O)Cn1nnnc1CN(CCc1ccccc1)Cc1cc2cc(CC)ccc2[nH]c1=O
RESULT: -4.43%
--
MOLECULE: Cc1cc(OCc2cc(C(=O)NCc3cc(C(C)C)no3)no2)cc(C)c1Cl
RESULT: 9.79%
--
MOLECULE: CCC1Oc2ccccc2N(CC(=O)NCCCN2CCN(c3ccc(OC)cc3)CC2)C1=O (stereo not drawn)
RESULT: -50.4%
--
MOLECULE: C=CCSc1nnc(-c2ccccc2N=Cc2c(C)[nH]n(-c3ccccc3)c2=O)c(=O)[nH]1
RESULT: -26.5%
--
MOLECULE: CCC1Oc2ccccc2N(CC(=O)NCCCN2CCN(Cc3ccccc3)CC2)C1=O (stereo not drawn)
RESULT: -42%
--
MOLECULE: CCC1Oc2ccccc2N(CC(=O)NCCCN2CCOCC2)C1=O (stereo not drawn)
RESULT: -4.71%

---

TEST SYSTEM: human ether-à-go-go-related gene (hERG) potassium channel (human, UniProt Q12809);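 note: peak tail current of the secondary pulse compared with the same well before compound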
Sequence (Q12809 whole entry, looked up): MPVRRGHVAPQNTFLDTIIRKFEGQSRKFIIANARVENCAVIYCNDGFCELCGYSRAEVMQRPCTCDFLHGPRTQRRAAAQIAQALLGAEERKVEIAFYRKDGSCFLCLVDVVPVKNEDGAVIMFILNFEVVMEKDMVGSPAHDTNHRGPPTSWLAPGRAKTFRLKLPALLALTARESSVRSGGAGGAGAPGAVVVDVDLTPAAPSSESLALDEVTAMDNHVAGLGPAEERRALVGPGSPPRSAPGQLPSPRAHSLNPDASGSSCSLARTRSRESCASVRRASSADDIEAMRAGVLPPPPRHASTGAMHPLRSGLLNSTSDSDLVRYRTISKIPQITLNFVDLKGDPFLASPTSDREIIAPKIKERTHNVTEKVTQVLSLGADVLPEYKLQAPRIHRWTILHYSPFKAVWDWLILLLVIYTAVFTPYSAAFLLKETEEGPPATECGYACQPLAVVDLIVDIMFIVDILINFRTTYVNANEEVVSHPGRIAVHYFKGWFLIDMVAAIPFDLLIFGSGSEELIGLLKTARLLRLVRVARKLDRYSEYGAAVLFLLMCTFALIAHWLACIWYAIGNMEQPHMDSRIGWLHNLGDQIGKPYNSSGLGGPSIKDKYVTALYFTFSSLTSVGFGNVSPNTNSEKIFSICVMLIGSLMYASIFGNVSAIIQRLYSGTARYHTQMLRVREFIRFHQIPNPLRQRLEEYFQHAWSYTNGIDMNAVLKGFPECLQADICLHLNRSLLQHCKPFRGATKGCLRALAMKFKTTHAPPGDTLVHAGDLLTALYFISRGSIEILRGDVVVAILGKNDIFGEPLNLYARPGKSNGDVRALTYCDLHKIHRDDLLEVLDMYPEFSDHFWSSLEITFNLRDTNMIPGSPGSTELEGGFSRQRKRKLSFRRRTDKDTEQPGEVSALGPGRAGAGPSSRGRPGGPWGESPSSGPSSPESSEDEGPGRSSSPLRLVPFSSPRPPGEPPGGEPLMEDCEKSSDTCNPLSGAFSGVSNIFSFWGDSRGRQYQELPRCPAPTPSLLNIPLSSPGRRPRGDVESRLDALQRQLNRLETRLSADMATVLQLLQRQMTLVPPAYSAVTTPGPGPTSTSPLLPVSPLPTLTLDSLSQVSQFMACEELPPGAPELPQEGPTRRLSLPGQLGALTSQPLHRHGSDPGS
ASSAY: primary screen, population patch clamp on CHO cells stably expressing hERG; higher = less effect of the substance
Out of some 310,000 compounds screened, about 14,000 (4.5%) showed an effect of 50% or more. The effect is printed as a negative number. The sample holds strong results, similar compounds and a random draw of the others, so the mix is not that of the screen.
Reported hERG current change (%, negative = inhibition) at 10uM values are given for each entry in this list.
MEASURED PROPERTY: hERG current change (%, negative = inhibition) at 10uM (%)

MOLECULE: CCOc1ccc(C(=O)N2CCn3c2nc2ccccc23)cc1
RESULT: -5.37
//
MOLECULE: O=C(COc1ccccc1)N(Cc1cccs1)C1CCS(=O)(=O)C1 (stereo not shown)
RESULT: -17.4
//
MOLECULE: CC(Oc1ccc(F)cc1)C(=O)Nc1nc(-c2ccccn2)cs1 (stereo not shown)
RESULT: -76.3
//
MOLECULE: O=C(c1ccc([N+](=O)[O-])cc1)N(Cc1cccs1)C1CCS(=O)(=O)C1 (stereo not shown)
RESULT: -50
//
MOLECULE: CCCCn1c(SCC(=O)Nc2ccc3c(c2)CCC3)nc2ccccc2c1=O
RESULT: -33.6
//
MOLECULE: CCCC1=Nc2cc(C(=O)N3CCC(C(N)=O)CC3)ccc2Sc2ccccc21
RESULT: 4.75
//
MOLECULE: O=C(OCc1cncs1)c1ccccc1Cl
RESULT: 6.6
//
MOLECULE: Cc1ccc(OCC(=O)N(Cc2cccs2)C2CCS(=O)(=O)C2)cc1 (stereo not shown)
RESULT: -8.3
//
MOLECULE: CCC(C)NC(=O)CSc1nc2ccccc2c(=O)n1CCCN1CCCCC1 (stereo not shown)
RESULT: -13.8
//
MOLECULE: Cc1ccc(NC(=O)CSc2nc3ccccc3c(=O)n2CCCN2CCCCC2)cc1Cl
RESULT: -73.7
//
MOLECULE: Cc1c(C(=O)N(Cc2ccccc2)C2CCS(=O)(=O)C2)oc2ccccc12 (stereo not shown)
RESULT: -38.5
//
MOLECULE: CS(=O)(=O)c1ccc(Cl)c(NC(=O)CSc2nc3ccccc3c(=O)n2CCCN2CCOCC2)c1
RESULT: -47.7
//
MOLECULE: COc1ccc(-c2nc(SC)n(C(=O)c3ccco3)n2)cc1
RESULT: 13.7
//
MOLECULE: CN1C(=O)OC(C)(C)C1=O
RESULT: -2.78
//
MOLECULE: O=C(NCCS(=O)(=O)NCc1ccc(F)cc1)c1ccc2c(c1)OCO2
RESULT: -39.8
//
MOLECULE: CC(Oc1cccc(Cl)c1)C(=O)Nc1nc(-c2ccccn2)cs1 (stereo not shown)
RESULT: 4.19
